target: human Nav1.1 (Homo sapiens); construct: host or cells: HEK293; test: Amplification of Nav1.1-derived voltage-dependent sodium current (Nav1.1 current), cell line stably expressing human Nav1.1, automated patch clamp; format: cell-based; conditions: 10 μmol/L compound; change of the area under the curve of Nav1.1 current (Test Result 1); read-out: Nav1.1 current amplification rate (%)

COMPOUND	activation at 10 µM, %
O=C(Cn1nc(N2CCC3(CCCC3)C2)cc(N2CCCC2)c1=O)Nc1ccc2ocnc2c1 [Example 206]	154
Cc1c(N2CCC3(CCC3)C2)nn(CC(=O)N2CCc3c(N4CCOCC4)cccc32)c(=O)c1C [Example 226]	319
N#Cc1ccc(NC(=O)Cn2nc(N3CCCCCC3)ccc2=O)cn1 [Example 119]	120
CC1CCN(c2ccc(=O)n(CC(=O)Nc3ccc4ccoc4c3)n2)CC1 [Example 163]	118

---

molecular target: human Nav1.1 (Homo sapiens, UniProt P35498); construct: host or cells: HEK293; assay: Amplification of Nav1.1-derived voltage-dependent sodium current (Nav1.1 current), cell line stably expressing human Nav1.1, automated patch clamp; assay type: cell-based; conditions: compound 3 μmol/L; HEK293 stably expressing human Nav1.1

COMPOUND	Nav1.1 current amplification rate (%)
CC1CC=C(c2ccc(=O)n(CC(=O)N3CCc4c(-c5ccn(C)n5)cccc43)n2)CC1 (racemic) [Example 252]	254
COc1ncc(-c2cccc3c2CCN3C(=O)Cn2nc(C3=CCC(C)CC3)ccc2=O)cn1 (racemic) [Example 249]	584
Cc1nc2cc(NC(=O)Cn3nc(C4=CCC(C)CC4)ccc3=O)cnc2s1 (racemic) [Example 326]	132
COCc1nc2cc(NC(=O)Cn3nc(C4=CCC(C)CC4)ccc3=O)ccc2o1 (racemic) [Example 325]	233
CC1CC=C(c2ccc(=O)n(CC(=O)N3CCc4c(-c5cccnc5)cccc43)n2)CC1 (racemic) [Example 248]	392
CC1CC=C(c2ccc(=O)n(CC(=O)Nc3ccn4cc(C5CC5)nc4c3)n2)CC1 (racemic) [Example 334]	255
COC1CN(Cc2nc3cc(NC(=O)Cn4nc(C5=CCC(C)CC5)ccc4=O)ccc3o2)C1 (racemic) [Example 332]	15
CC1CC=C(c2ccc(=O)n(CC(=O)N3CCc4c(C5=CCNC5)cccc43)n2)CC1 (racemic) [Example 265]	110
Cc1ncccc1N1CCN(C(=O)Cn2nc(C3=CCC(C)CC3)ccc2=O)CC1 (stereo not drawn) [Example 410]	66
Cc1ncc(-c2cccc3c2CCN3C(=O)Cn2nc(C3=CCC(C)CC3)ccc2=O)cn1 (racemic) [Example 264]	597
CCN1CC(c2cccc3c2CCN3C(=O)Cn2nc(C3=CCC(C)CC3)ccc2=O)C1 (racemic) [Example 302]	104
Cc1nc2cc(NC(=O)Cn3nc(C4=CCC(C)CC4)ccc3=O)ccn2c1C (racemic) [Example 329]	100
CC1CC=C(c2ccc(=O)n(CC(=O)N3CCN(c4cncc(OC(F)F)c4)CC3)n2)CC1 (stereo not drawn) [Example 405]	268
Cc1cc(NC(=O)Cn2nc(C3=CCC(C)CC3)ccc2=O)cc2ncoc12 (racemic) [Example 323]	154
COc1cnc(C)c(N2CCN(C(=O)Cn3nc(C4=CCC(C)CC4)ccc3=O)CC2)c1 (stereo not drawn) [Example 418]	105

---

target: human Nav1.5 (Homo sapiens); construct: expressed in transfected cells; host or cells: CHO-K1 (T-REx System, ThermoFisher Scientific); test: Amplification of Nav1.5-derived voltage-dependent sodium current (Nav1.5 current), cell line stably expressing human Nav1.5, automated patch clamp; type: cell-based; details: compound 3 μmol/L; CHO-K1 stably expressing human Nav1.5
Classes by Nav1.5 current amplification rate (%): lower band (below 10%), central band (10% to below 60%), upper band (60% or more)

MOLECULE	LABEL_CLASS
CC1CC=C(c2ccc(=O)n(CC(=O)Nc3cccc(N4CCOCC4)c3F)n2)CC1 (racemic)	central band
CCN1CC(c2cccc3c2CCN3C(=O)Cn2nc(C3=CCC(C)CC3)ccc2=O)C1 (racemic)	upper band
CC1CC=C(c2ccc(=O)n(CC(=O)N3C[C@H](C)N(c4cccnc4)C[C@H]3C)n2)CC1 (stereo partly drawn)	lower band
CC1CC=C(c2ccc(=O)n(CC(=O)N3CCc4c(CO)cccc43)n2)CC1 (racemic)	upper band
CC1CC=C(c2ccc(=O)n(CC(=O)N3CCc4cc(C5CN(C6COC6)C5)ccc43)n2)CC1 (racemic)	upper band
CC1CC=C(c2ccc(=O)n(CC(=O)N3CCc4c(CN5CCCC5)cccc43)n2)CC1 (racemic)	upper band
CC1CC=C(c2ccc(=O)n(CC(=O)N3CCOc4c(-c5cn[nH]c5)cccc43)n2)CC1 (racemic)	lower band
O=C(Cn1nc(C2=CCC3(CC2)CC3(F)F)ccc1=O)N1CCc2c(N3CCOCC3)cccc21 (racemic)	central band
Cc1ncc(-c2cccc3c2CCN3C(=O)Cn2nc(C3=CCC(C)CC3)ccc2=O)cn1 (racemic)	upper band
COC1CN(Cc2nc3cc(NC(=O)Cn4nc(C5=CCC(C)CC5)ccc4=O)ccc3o2)C1 (racemic)	lower band
CC1CC=C(c2ccc(=O)n(CC(=O)Nc3cc4nccn4cn3)n2)CC1 (racemic)	central band
Cc1nc2cc(NC(=O)Cn3nc(C4=CCC(C)CC4)ccc3=O)ccn2c1C (racemic)	central band
CC1CC=C(c2ccc(=O)n(CC(=O)N3CCc4c(-c5ccnn5C)cccc43)n2)CC1 (racemic)	central band
COc1ncc(N2CCN(C(=O)Cn3nc(C4=CCC(C)CC4)ccc3=O)CC2)cc1F (stereo not drawn)	central band
CC1CC=C(c2ccc(=O)n(CC(=O)Nc3ccc4oc(CN5CCC5)nc4c3)n2)CC1 (racemic)	central band
CC1CC=C(c2ccc(=O)n(CC(=O)N3CCc4c(C5CN(C(=O)CO)C5)cccc43)n2)CC1 (racemic)	upper band
CC1CC=C(c2ccc(=O)n(CC(=O)N3CCc4c(C5CN(C6COC6)C5)cccc43)n2)CC1 (racemic)	central band
CC1CC=C(c2ccc(=O)n(CC(=O)N3CCc4c(C5CN(C)C5)cccc43)n2)CC1 (racemic)	central band
CC1CC=C(c2ccc(=O)n(CC(=O)N3CCc4c(C5CN(CCO)C5)cccc43)n2)CC1 (racemic)	central band
CC1CC=C(c2ccc(=O)n(CC(=O)Nc3ccn4cc(C5CC5)nc4c3)n2)CC1 (racemic)	central band
COc1cc(N2CCN(C(=O)Cn3nc(C4=CCC(C)CC4)ccc3=O)CC2)ccc1F (stereo not drawn)	lower band
CC1CC=C(c2ccc(=O)n(CC(=O)N3CCc4c(-c5ccn(C)n5)cccc43)n2)CC1 (racemic)	central band
CC1CC=C(c2ccc(=O)n(CC(=O)N3CCc4c(-c5cn[nH]c5)cccc43)n2)CC1 (racemic)	upper band
Cc1nc2cc(NC(=O)Cn3nc(C4=CCC(C)CC4)ccc3=O)cnc2s1 (racemic)	central band
CC1(C)CC=C(c2ccc(=O)n(CC(=O)N3CCc4c(C5CN(C6COC6)C5)cccc43)n2)CC1	central band
CC1CC=C(c2ccc(=O)n(CC(=O)Nc3ccc4oc(C(C)(C)O)nc4c3)n2)CC1 (racemic)	lower band
CC1CC=C(c2ccc(=O)n(CC(=O)N3CCc4c(OCC(C)(C)O)cccc43)n2)CC1 (racemic)	central band
COc1ncc(-c2cccc3c2CCN3C(=O)Cn2nc(C3=CCC(C)CC3)ccc2=O)cn1 (racemic)	upper band

---

target: human Nav1.1 (Homo sapiens); construct: host or cells: HEK293; test: Amplification of Nav1.1-derived voltage-dependent sodium current (Nav1.1 current), cell line stably expressing human Nav1.1, automated patch clamp; assay type: cell-based; conditions: 10 μmol/L compound (Test Result 5); read-out: Nav1.1 current amplification rate (%)
REPORTED_METRIC: activation at 10 µM (%)

COMPOUND	REPORTED_METRIC	TEST_VALUE
CC1(C)CC=C(c2ccc(=O)n(CC(=O)NC3CCn4ccnc4C3)n2)CC1 (stereo not drawn)	activation at 10 µM	7
CC1CCN(c2ccc(=O)n(CC(=O)N3CCN(c4ccccn4)CC3)n2)CC1	activation at 10 µM	22
N#Cc1ccc(NC(=O)Cn2nc(C3=CCC(F)(F)CC3)ccc2=O)cc1	activation at 10 µM	93
COc1cccc2c1CCN2C(=O)Cn1nc(N2CCC(C)(C)CC2)ccc1=O	activation at 10 µM	51
O=C(Cn1nc(C2=CCCCO2)ccc1=O)N1CCc2c(-c3ccnnc3)cccc21	activation at 10 µM	18
CC1(C)C=C(c2ccc(=O)n(CC(=O)Nc3ccc(C#N)cc3)n2)CCO1	activation at 10 µM	10

---

Item-by-item account of activation at 10 µM
biological target: human Nav1.5 (Homo sapiens, UniProt Q14524); construct: expressed in transfected cells; host or cells: CHO-K1 (T-REx System, ThermoFisher Scientific); experiment: Amplification of Nav1.5-derived voltage-dependent sodium current (Nav1.5 current), cell line stably expressing human Nav1.5, automated patch clamp; type: cell-based; settings: 10 μmol/L compound; change of the area under the curve of Nav1.5 current (Test Result 1); read-out: Nav1.5 current amplification rate (%)
Sequence (Q14524 1-2015 isoform Q14524-2): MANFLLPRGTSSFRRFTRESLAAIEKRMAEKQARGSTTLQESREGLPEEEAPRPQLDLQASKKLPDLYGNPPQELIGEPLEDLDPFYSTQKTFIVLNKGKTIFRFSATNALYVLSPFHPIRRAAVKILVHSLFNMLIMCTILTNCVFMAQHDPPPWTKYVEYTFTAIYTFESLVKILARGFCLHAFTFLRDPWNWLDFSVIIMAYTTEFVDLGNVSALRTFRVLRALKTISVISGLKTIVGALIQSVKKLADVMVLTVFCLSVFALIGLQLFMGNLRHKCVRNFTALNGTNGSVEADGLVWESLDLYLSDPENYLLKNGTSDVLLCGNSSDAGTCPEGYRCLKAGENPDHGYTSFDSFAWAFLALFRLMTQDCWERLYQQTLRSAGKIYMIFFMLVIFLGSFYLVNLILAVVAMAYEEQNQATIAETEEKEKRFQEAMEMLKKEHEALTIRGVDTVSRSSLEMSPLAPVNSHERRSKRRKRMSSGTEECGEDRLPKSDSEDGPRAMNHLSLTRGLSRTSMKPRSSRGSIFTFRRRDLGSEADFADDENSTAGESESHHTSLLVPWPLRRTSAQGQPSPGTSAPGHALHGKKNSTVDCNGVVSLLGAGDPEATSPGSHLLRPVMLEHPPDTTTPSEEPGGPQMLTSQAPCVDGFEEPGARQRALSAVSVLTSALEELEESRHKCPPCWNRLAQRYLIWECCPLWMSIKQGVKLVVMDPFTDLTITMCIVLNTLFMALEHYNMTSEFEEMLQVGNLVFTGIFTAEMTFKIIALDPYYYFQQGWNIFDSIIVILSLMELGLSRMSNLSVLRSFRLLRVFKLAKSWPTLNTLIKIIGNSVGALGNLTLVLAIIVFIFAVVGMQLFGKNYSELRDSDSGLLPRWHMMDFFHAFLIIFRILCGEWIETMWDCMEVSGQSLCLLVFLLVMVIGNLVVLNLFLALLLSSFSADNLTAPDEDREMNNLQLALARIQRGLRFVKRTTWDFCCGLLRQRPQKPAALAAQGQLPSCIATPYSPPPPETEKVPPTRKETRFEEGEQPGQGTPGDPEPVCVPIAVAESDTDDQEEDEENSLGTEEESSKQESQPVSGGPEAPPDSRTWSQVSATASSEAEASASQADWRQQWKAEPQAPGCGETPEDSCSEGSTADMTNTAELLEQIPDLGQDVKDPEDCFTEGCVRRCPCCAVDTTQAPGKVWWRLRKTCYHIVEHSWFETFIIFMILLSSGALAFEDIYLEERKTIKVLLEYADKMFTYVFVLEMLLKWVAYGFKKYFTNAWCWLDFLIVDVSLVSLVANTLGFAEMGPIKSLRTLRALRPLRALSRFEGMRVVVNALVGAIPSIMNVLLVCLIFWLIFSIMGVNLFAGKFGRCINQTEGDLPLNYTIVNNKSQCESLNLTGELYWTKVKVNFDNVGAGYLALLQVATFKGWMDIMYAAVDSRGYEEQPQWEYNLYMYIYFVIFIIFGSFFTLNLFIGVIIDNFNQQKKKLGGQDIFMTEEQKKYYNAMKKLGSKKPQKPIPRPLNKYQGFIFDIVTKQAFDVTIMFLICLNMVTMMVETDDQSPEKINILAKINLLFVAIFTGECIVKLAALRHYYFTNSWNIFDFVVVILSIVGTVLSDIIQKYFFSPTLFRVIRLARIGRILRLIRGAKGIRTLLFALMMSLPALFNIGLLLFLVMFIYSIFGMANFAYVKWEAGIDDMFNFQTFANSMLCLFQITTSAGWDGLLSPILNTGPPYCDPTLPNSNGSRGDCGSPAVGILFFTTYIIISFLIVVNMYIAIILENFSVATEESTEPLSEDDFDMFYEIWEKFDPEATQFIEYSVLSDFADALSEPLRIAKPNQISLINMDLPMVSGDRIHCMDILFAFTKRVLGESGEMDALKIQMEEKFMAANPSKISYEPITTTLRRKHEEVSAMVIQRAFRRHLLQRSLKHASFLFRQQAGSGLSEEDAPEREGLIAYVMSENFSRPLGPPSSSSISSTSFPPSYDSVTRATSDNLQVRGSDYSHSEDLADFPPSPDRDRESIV
REPORTED_METRIC: activation at 10 µM (%)

COMPOUND	REPORTED_METRIC	UOM	TEST_VALUE
O=C(Cn1nc(N2CCC3(CCCC3)C2)ccc1=O)Nc1ccn2ccnc2c1 [Example 167]	activation at 10 µM	%	21
CC1CCN(c2ccc(=O)n(CC(=O)N3CCc4cc(N5CCOCC5)ccc43)n2)CC1 [Example 164]	activation at 10 µM	%	34
Cc1cc(=O)n(CC(=O)Nc2ccc3c(c2)OCC3)nc1N1CCC2(CCC2)C1 [Example 203]	activation at 10 µM	%	12
COc1cc(N2CCC3(CCC3)C2)nn(CC(=O)Nc2ccn3ccnc3c2)c1=O [Example 213]	activation at 10 µM	%	5
N#Cc1cncc(NC(=O)Cn2nc(C3=CCC(F)(F)CC3)ccc2=O)c1 [Example 107]	activation at 10 µM	%	24
COc1ccc2c(c1)CCN2C(=O)Cn1nc(N2CCC3(CCC3)C2)ccc1=O [Example 187]	activation at 10 µM	%	17
CC1(C)CC=C(c2ccc(=O)n(CC(=O)N3CCN(c4cccnc4)CC3)n2)C1 [Example 508]	activation at 10 µM	%	-3
O=C(Cn1nc(N2CC3(CCCCC3)C2)ccc1=O)Nc1ccn2ccnc2c1 [Example 179]	activation at 10 µM	%	-1
O=C(Cn1nc(N2CCC3(CCCC3)C2)ccc1=O)Nc1ccc2ocnc2c1 [Example 122]	activation at 10 µM	%	18
CC1CCN(c2ccc(=O)n(CC(=O)Nc3ccc4ccoc4c3)n2)CC1 [Example 163]	activation at 10 µM	%	1
Cc1c(N2CCC3(CCC3)C2)nn(CC(=O)Nc2ccn3ccnc3c2)c(=O)c1C [Example 209]	activation at 10 µM	%	16
O=C(Cn1nc(N2CCCCCC2)ccc1=O)Nc1ccnc(C(F)(F)F)c1 [Example 120]	activation at 10 µM	%	5
Cc1cc(=O)n(CC(=O)Nc2ccc3ocnc3c2)nc1N1CCC(C)CC1 [Example 201]	activation at 10 µM	%	1
O=C(Cn1nc(N2CCCC3(CCC3)C2)ccc1=O)Nc1cccc(-c2nccs2)c1 [Example 134]	activation at 10 µM	%	-5
CC1CCN(c2ccc(=O)n(CC(=O)Nc3ccn4c(Br)cnc4c3)n2)CC1 [Example 173]	activation at 10 µM	%	47
CC1CCN(c2ccc(=O)n(CC(=O)Nc3ccc(C(=O)N4CCCC4)nc3)n2)CC1 [Example 217]	activation at 10 µM	%	1
CC1(C)CCN(c2ccc(=O)n(CC(=O)N3CCc4c(N5CCOCC5)cccc43)n2)CC1 [Example 221]	activation at 10 µM	%	15

The reported numbers originate from patent US20220347175A1.
